- Experimental Target: HLA-A*32:01
- Test Conditions: chains peptide; modification not given
Measured Quantity: IC50 (nM)
Answer with a number only, understood to be in nM.

Can you share its IC50? I mean this binder: KQWFLDLPL [SEQ ID NO: 310 serotype 4]
8
